Test system: Candida albicans
Assay: Antifungal activity against Candida albicans MTCC 3017 assessed as reduction in fungal growth incubated for 24 hrs by agar well diffusion method
Assay type: functional
Settings: MTCC 3017, 24 h
Recorded Metric: MIC (µg/mL)
Field format: number, assumed µg/mL, no unit text.

Example entries begin here.
Enquiry: Note MIC for the compound shown: COc1ccc(-c2nc3sccn3c2C(=O)c2cn(-c3cc(OC)c(OC)c(OC)c3)nn2)cc1
Return: 7.8

Enquiry: Note MIC for the compound shown: O=C(c1cn(-c2ccc(C(F)(F)F)cc2)nn1)c1c(-c2ccccc2)nc2sccn12
Return: 15.6

Enquiry: Note MIC for the compound shown: COc1ccc(-c2nc3sccn3c2C(=O)c2cn(-c3ccc(Br)cc3)nn2)cc1
Return: 7.8

***
Enquiry: Note MIC for the compound shown: O=C(c1cn(-c2ccc(F)cc2Br)nn1)c1c(-c2ccccc2)nc2sccn12
Return: 7.8

Enquiry: Note MIC for the compound shown: COc1ccc(-n2cc(C(=O)c3c(-c4ccccc4)nc4sccn34)nn2)cc1
Return: 15.6

Enquiry: Note MIC for the compound shown: O=C(c1cn(-c2ccc(F)cc2)nn1)c1c(-c2ccc(Cl)cc2)nc2sccn12
Return: 15.6

Enquiry: Note MIC for the compound shown: O=C(c1cn(-c2ccc(F)cc2Br)nn1)c1c(-c2ccc(Cl)cc2)nc2sccn12
Return: 7.8
